Target system: T1, cynomolgus CD33 (cynomolgus)
T1 construct: Recombinant on transfected HEK293F cells; also called cyno CD33; cynoCD33
T1 sequence (chain, as listed by the source limits assumed): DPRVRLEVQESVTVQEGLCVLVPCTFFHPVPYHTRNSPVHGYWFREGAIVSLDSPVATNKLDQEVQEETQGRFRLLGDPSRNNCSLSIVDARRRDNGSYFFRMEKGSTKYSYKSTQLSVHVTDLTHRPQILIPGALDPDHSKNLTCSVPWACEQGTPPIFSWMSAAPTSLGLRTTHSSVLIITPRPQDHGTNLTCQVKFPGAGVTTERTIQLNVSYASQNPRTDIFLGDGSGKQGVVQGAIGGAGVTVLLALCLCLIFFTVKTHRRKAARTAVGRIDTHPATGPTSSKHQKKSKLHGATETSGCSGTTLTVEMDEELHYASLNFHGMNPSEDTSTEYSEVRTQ
Method summary: flow cytometry on HEK293F cells expressing cyno CD33; competition with 1 nM AlexaFluor-647 m2H12 (methods paragraph 148)
Parameter EC50: see the listing below.
Kindly provide the numeric value in nM only, without the unit symbol.

Binder	Recorded metric	Unit label	Number
h2H12 antibody (2H12 HILG) (antibody, V domains shown, also called humanized 2H12; human 2H12 antibody) VH: QVQLVQSGAEVKKPGASVKVSCKASGYTFTNYDINWVRQAPGQGLEWIGWIYPGDGSTKYNEKFKAKATLTADTSTSTAYMELRSLRSDDTAVYYCASGYEDAMDYWGQGTTVTVSS VL: DIQMTQSPSSLSASVGDRVTINCKASQDINSYLSWFQQKPGKAPKTLIYRANRLVDGVPSRFSGSGSGQDYTLTISSLQPEDFATYYCLQYDEFPLTFGGGTKVEIK	EC50	nM	39.9
HILE (antibody, V domains shown, Humanized antibody, heavy chain HI with light chain LE) VH: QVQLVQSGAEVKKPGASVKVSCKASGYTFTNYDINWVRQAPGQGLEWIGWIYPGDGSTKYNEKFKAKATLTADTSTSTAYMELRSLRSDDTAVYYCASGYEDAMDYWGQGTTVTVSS VL: DIQMTQSPSSLSASVGDRVTITCKASQDINSYLSWFQQKPGKAPKSLIYRANRLVDGVPSRFSGSGSGTDYTLTISSLQPEDFATYYCLQYDEFPLTFGGGTKVEIK	EC50	nM	64.8
HCLG (antibody, V domains shown, Humanized antibody, heavy chain HC with light chain LG) VH: QVQLVQSGAEVKKPGASVKVSCKASGYTFTNYDINWVRQAPGQGLEWMGWIYPGDGSTKYNEKFKARVTMTTDTSTSTAYMELRSLRSDDTAVYYCASGYEDAMDYWGQGTTVTVSS VL: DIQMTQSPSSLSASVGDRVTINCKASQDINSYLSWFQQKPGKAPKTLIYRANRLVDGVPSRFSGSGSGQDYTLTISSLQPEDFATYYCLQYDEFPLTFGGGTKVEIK	EC50	nM	63
murine mAb 2H12 (antibody, V domains shown, Murine monoclonal antibody from Balb/c mice; also called m2H12; murine 2H12 antibody) VH: QVQLQQSGPELVRPGTFVKISCKASGYTFTNYDINWVNQRPGQGLEWIGWIYPGDGSTKYNEKFKAKATLTADKSSSTAYLQLNNLTSENSAVYFCASGYEDAMDYWGQGTSVTVSS VL: DIKMTQSPSSMYASLGERVIINCKASQDINSYLSWFQQKPGKSPKTLIYRANRLVDGVPSRFSGSGSGQDYSLTISSLEYEDMGIYYCLQYDEFPLTFGAGTKLELK	EC50	nM	30.6
HILA (antibody, V domains shown, Humanized antibody, heavy chain HI with light chain LA) VH: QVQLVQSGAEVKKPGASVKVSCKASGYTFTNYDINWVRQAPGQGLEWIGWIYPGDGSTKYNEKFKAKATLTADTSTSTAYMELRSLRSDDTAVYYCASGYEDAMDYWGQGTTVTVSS VL: DIQMTQSPSSLSASVGDRVTITCKASQDINSYLSWFQQKPGKAPKSLIYRANRLVDGVPSRFSGSGSGTDFTLTISSLQPEDFATYYCLQYDEFPLTFGGGTKVEIK	EC50	nM	126

query: Query (binder): HCLA (antibody, V domains shown, Humanized antibody, heavy chain HC with light chain LA) VH: QVQLVQSGAEVKKPGASVKVSCKASGYTFTNYDINWVRQAPGQGLEWMGWIYPGDGSTKYNEKFKARVTMTTDTSTSTAYMELRSLRSDDTAVYYCASGYEDAMDYWGQGTTVTVSS VL: DIQMTQSPSSLSASVGDRVTITCKASQDINSYLSWFQQKPGKAPKSLIYRANRLVDGVPSRFSGSGSGTDFTLTISSLQPEDFATYYCLQYDEFPLTFGGGTKVEIK ; field requested: EC50
result: 141

query: Could you do the same for HCLE (antibody, V domains shown, Humanized antibody, heavy chain HC with light chain LE) VH: QVQLVQSGAEVKKPGASVKVSCKASGYTFTNYDINWVRQAPGQGLEWMGWIYPGDGSTKYNEKFKARVTMTTDTSTSTAYMELRSLRSDDTAVYYCASGYEDAMDYWGQGTTVTVSS VL: DIQMTQSPSSLSASVGDRVTITCKASQDINSYLSWFQQKPGKAPKSLIYRANRLVDGVPSRFSGSGSGTDYTLTISSLQPEDFATYYCLQYDEFPLTFGGGTKVEIK , please?
result: 129
